- Tested on: MDA-MB-231
- PROTOCOL_DESCRIPTION: Cytotoxicity against human MDA-MB-231 cells after 72 hrs by SRB assay
- Assay type: functional
- SETTINGS: MDA-MB-231, 72 h, read-out: ED50 (the source's name)
PROPERTY_NAME: EC50

A selection of reference data follows.
[[record]]
item_smiles = "O=c1cc(N2CCOCC2)c2ccc3ccccc3c2o1"
reading = "> 30 µM"

[[record]]
item_smiles = "O=c1cc(Nc2ccccc2Br)c2ccc3ccccc3c2o1"
reading = "2.6 µM"

[[record]]
item_smiles = "Cc1cccc(Nc2cc(=O)oc3c2ccc2ccccc23)c1"
reading = "0.76 µM"

[[record]]
item_smiles = "COc1ccccc1Nc1cc(=O)oc2c1ccc1ccccc12"
reading = "7.3 µM"


Consider now this further compound.
Item: CCc1cccc2c1ccc1c(NCC(=O)N(C)OC)cc(=O)oc12 Test system: MDA-MB-231 Read-out: EC50 Value: ?
> 30 µM
